Each recorded value in this set is attributed to the supplement of paper PMC10567573.

Field: protein stability index. Provide a value for each of the variants that follow.
B1: ZNF449 (parent)
chain: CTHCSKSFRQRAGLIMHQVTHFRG

# Variants of: B1
# PROTOCOL_NOTES: protein stability index of a GFP-peptide fusion (GPS, HEK-293T) (PSI 1-6); higher = more stable;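 further: lentivirally expressed fusions sorted by FACS into six bins by GFP to DsRed ratio, PSI derived from sequencing read proportions per bin multiplied by bin number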
# DETAILS: c terminus: a fixed tail appended
One number for each entry.

Consider the worked cases shown below.
- VARIANT_DESCRIPTION: "T20I"
  OBSERVED: 2.57
- VARIANT_DESCRIPTION: "H21A"
  OBSERVED: 2.17
- VARIANT_DESCRIPTION: "G24R"
  OBSERVED: 2.29
- VARIANT_DESCRIPTION: "R23C"
  OBSERVED: 2.56
- VARIANT_DESCRIPTION: "F22W"
  OBSERVED: 1.08

Record protein stability index for all entries; do not skip any.
1. M16Q
2. I15W
3. S7W

3.57
2.9
1.78

Record protein stability index for all entries; do not skip any.
1. R11M
2. S7N
3. C4E

3.23
2.58
1.77
